molecular target: VLA-4 (α4β1 integrin) (Homo sapiens, UniProt P05556+P13612); construct: Ramos cells bearing cell-surface VLA-4; endogenous in cells; host or cells: Ramos cells; experiment: Ramos (VLA-4)/VCAM-1 Cell-Based Screening Assay (cell adhesion); settings: Calcein-AM labeled Ramos cells adhering to immobilized recombinant human VCAM-1
Sequence (P13612 34-1032): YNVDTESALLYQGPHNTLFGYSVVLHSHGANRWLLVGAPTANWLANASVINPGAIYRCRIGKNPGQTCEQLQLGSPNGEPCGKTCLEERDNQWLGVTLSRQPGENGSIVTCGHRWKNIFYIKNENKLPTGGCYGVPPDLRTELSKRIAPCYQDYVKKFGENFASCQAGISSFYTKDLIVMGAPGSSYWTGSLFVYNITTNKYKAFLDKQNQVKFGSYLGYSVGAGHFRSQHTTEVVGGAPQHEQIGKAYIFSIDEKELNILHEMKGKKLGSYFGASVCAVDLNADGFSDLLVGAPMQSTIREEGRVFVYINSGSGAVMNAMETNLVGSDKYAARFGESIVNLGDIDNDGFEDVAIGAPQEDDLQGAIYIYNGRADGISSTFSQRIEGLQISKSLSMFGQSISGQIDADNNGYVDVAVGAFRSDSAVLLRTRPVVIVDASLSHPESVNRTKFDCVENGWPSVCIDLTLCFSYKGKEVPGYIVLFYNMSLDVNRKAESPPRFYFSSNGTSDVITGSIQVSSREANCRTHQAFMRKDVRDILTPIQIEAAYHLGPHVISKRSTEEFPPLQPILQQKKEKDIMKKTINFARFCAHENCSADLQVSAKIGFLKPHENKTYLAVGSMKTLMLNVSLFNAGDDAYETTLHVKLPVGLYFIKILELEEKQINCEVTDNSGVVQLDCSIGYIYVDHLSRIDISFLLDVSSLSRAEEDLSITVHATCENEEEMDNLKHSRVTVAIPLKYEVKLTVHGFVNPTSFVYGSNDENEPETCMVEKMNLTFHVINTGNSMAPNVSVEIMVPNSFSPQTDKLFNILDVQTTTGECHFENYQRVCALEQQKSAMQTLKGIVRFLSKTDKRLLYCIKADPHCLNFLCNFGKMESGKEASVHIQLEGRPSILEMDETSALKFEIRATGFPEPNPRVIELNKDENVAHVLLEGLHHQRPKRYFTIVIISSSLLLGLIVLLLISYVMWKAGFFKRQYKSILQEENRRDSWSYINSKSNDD
Sequence (P05556 21-798): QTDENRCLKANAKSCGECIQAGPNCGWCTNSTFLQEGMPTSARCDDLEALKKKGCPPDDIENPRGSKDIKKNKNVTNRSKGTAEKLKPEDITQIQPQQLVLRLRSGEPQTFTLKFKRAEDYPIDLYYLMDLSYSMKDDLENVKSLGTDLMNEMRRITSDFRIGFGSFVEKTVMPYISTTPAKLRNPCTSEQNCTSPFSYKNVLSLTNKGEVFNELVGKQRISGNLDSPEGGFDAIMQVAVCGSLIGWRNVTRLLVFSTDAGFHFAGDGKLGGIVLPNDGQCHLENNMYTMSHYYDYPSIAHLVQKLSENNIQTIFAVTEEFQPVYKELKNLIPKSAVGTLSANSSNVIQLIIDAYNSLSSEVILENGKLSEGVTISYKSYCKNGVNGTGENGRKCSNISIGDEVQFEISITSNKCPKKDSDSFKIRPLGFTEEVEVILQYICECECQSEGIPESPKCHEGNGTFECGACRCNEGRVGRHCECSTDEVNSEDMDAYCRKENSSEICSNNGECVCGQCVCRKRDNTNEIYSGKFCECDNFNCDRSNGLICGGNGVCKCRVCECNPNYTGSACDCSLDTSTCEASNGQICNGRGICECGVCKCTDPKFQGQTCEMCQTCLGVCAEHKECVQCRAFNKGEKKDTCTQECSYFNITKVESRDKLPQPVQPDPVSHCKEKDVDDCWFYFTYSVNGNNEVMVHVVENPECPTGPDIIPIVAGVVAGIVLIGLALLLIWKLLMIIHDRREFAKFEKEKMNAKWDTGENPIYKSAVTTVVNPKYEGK
# IC50 annotations

                            smiles_notation                         system_under_test  assay_metric   reading
0  Cc1c(-c2ccc(C[C@H](NC(=O)c3c(C(C)C)cccc3C(C)C)C(=O)O)cc2)c(=O)n(C)c(=O)n1C  VLA-4 (α4β1 integrin) (Homo sapiens, UniProt P05556+P13612)          IC50   < 10 µM
1  Cc1cc(C[C@H](NC(=O)c2c(Cl)cccc2Cl)C(=O)O)ccc1-c1c(C)n(C)c(=O)n(C)c1=O  VLA-4 (α4β1 integrin) (Homo sapiens, UniProt P05556+P13612)          IC50   < 10 µM
2  Cc1c(-c2ccc(C[C@H](NC(=O)c3c(F)cccc3F)C(=O)O)cc2)c(=O)n(C)c(=O)n1C  VLA-4 (α4β1 integrin) (Homo sapiens, UniProt P05556+P13612)          IC50  < 0.1 µM
3  COCCC1(C(=O)N[C@@H](Cc2ccc(-c3c(C)n(C)c(=O)n(C)c3=O)cc2)C(=O)O)CCCC1  VLA-4 (α4β1 integrin) (Homo sapiens, UniProt P05556+P13612)          IC50  < 0.1 µM
4  CCn1c(C)c(-c2ccc(C[C@H](NC(=O)c3c(Cl)cccc3Cl)C(=O)O)cc2)c(=O)n(CC)c1=O  VLA-4 (α4β1 integrin) (Homo sapiens, UniProt P05556+P13612)          IC50  < 0.1 µM
5  Cn1c(C(F)(F)F)c(-c2ccc(C[C@H](NC(=O)c3c(Cl)cccc3Cl)C(=O)O)cc2)c(=O)n(C)c1=O  VLA-4 (α4β1 integrin) (Homo sapiens, UniProt P05556+P13612)          IC50  < 0.1 µM

// switching to the query compound
Data point: CCCc1cccc(Cl)c1C(=O)N[C@@H](Cc1ccc(-c2c(C)n(C)c(=O)n(C)c2=O)cc1)C(=O)O ; IC50 = < 0.1 µM

Ref: patent US6380387B1
